Reference source: patent US20250205198A1

# MRT last per record follows
method.notes: Plasma pharmacokinetics after intravenous (bolus) co-administration of DMT and DMT-d10 to male rats (Group 4)
measurement.parameters: male, Sprague Dawley, rat, plasma, iv, 1 mg/kg
endpoint.name: MRT last (min)

[[record]]
compound = "CN(C)CCc1c[nH]c2ccccc12 [DMT, N,N-dimethyltryptamine, reference compound]"
scale_unit = "min"
measured = 12.7

[[record]]
compound = "[2H]C([2H])([2H])N(C([2H])([2H])[2H])C([2H])([2H])C([2H])([2H])c1c[nH]c2ccccc12 [DMT-d10]"
scale_unit = "min"
measured = 19.6


----------
method.notes: Plasma pharmacokinetics after 20-minute snout-only inhalation (nebulized aerosol) co-administration of DMT and DMT-d10 to male rats (Group 6)
measurement.parameters: male, Sprague Dawley, rat, plasma, inhaled or intranasal, 15.5 mg/kg
endpoint.name: AUC0-inf (ng·h/mL)

[[record]]
mol_smiles = "[2H]C([2H])([2H])N(C([2H])([2H])[2H])C([2H])([2H])C([2H])([2H])c1c[nH]c2ccccc12"
measured = 384

